Provenance of the data: patent US11292766B2

As shown below, each of these molecules has a reported pEC50 value.
# measured on: human orexin type 2 receptor (hOX2R) (Homo sapiens (Human), UniProt O43614)
# Sequence (O43614 whole entry): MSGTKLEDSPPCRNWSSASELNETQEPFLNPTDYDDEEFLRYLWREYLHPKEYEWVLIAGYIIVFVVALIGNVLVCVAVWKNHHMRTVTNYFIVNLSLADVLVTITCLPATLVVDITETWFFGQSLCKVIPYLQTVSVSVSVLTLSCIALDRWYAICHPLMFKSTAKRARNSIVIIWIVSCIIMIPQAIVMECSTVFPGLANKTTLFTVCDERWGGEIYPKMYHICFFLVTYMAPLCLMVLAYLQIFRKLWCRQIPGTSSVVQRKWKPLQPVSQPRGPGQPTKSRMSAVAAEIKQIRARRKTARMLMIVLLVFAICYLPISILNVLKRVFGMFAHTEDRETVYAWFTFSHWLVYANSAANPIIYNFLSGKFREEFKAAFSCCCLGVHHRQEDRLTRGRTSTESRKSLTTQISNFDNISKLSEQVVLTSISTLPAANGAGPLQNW
# assay text: Measurement of orexin type 2 receptor agonist activity (Experimental Example 2-1, FLIPR intracellular Ca2+)
# condition context: CHO dhfr- cells expressing hOX2R, FLIPR TETRA Ca2+ fluorescence (Exp. Ex. 2-1)
# Excerpt: To obtain a cell clone stably expressing human orexin type 2 receptor, human orexin type 2 receptor cDNA was inserted into pcDNA3.1(+) plasmid vector (Invitrogen), and a plasmid DNA for expression of human orexin type 2 receptor (pcDNA3.1(+)/hOX2R) was cloned. The plasmid DNA was introduced into CHO-dhfr cell by an electroporation method, and human orexin type 2 receptor expressing clone cells were obtained by limiting dilution method by using G418 drug resistance as a selection marker. […]
// pEC50: -log10(molar conc.)

* CCOC(=O)N1CCC[C@H](NS(C)(=O)=O)[C@@H]1CO[C@H]1CC[C@@H](c2ccccc2)CC1 | 7.82

Consider the additional molecule presented here.
Exercise: # get_value(readout='pEC50', item= COc1cccc([C@H]2CC[C@@H](OC[C@H]3[C@@H](NS(C)(=O)=O)CCCN3C(=O)C3CC3)CC2)c1 )
Key: 7.64
